target: Aldo-keto reductase family 1 member A1 (Rattus norvegicus, UniProt P51635)
Sequence (P51635 whole entry, looked up): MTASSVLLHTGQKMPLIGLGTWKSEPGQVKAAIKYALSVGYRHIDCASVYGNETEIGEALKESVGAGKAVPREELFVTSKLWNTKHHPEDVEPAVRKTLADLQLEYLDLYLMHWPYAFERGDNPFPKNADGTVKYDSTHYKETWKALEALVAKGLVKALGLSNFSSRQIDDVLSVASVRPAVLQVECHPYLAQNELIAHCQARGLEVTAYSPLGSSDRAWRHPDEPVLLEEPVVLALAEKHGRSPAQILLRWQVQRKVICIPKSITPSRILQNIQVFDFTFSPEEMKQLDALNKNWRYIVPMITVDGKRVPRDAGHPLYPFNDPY
QUANTITY_NAME: pIC50
pIC50 here is simply -log10 of the concentration when that concentration is written in mol/L.

Challenge: Name the reported pIC50 value associated with the molecule O=C(O)CN1C(=O)C(=O)N(Cc2ccc(Cl)cc2Cl)C1=O
Response given: 4.34

###

# inhibition annotations
molecular target: Aldo-keto reductase family 1 member B1 (Rattus norvegicus) (UniProt P07943); assay: In vitro inhibitory activity against partially purified rat lens Aldose reductase at a dose of 5e-7M
Write the answer as a number in %, unit excluded.

O=C(O)CN1C(=O)C(=O)N(Cc2ccccc2[N+](=O)[O-])C1=O; 66

Challenge: Name the reported inhibition value associated with the compound Cc1ccccc1CN1C(=O)C(=O)N(CC(=O)O)C1=O
Response given: 41

Challenge: Name the reported inhibition value associated with the compound O=C(O)CN1C(=O)C(=O)N(CCc2cccc([N+](=O)[O-])c2)C1=O
Response given: 36

Challenge: Name the reported inhibition value associated with the compound O=C(O)CN1C(=O)C(=O)N(Cc2ccc([N+](=O)[O-])cc2)C1=O
Response given: 26

Challenge: Name the reported inhibition value associated with the compound O=C(O)CN1C(=O)C(=O)N(Cc2ccc(Br)cc2)C1=O
Response given: 65
